- Test system: T47D
- assay_comment: cells
- condition_details: Homo sapiens, 72 h
result_type: IC50

# compound, result_type, result_value
measured = [
    ("CCN(c1ccc(OCCCCCC(=O)Nc2cccc3c2C(=O)N(C2CCC(=O)NC2=O)C3=O)cc1)S(=O)(=O)C1CC2OC1C(c1ccc(O)cc1)=C2c1ccc(O)cc1 (stereo not given)", "IC50", "> 100 µM"),
    ("O=C(COc1cccc2c1C(=O)N(C1CCC(=O)NC1=O)C2=O)NCCCCCCCCOc1ccc(N(CC(F)(F)F)S(=O)(=O)C2CC3OC2C(c2ccc(O)cc2)=C3c2ccc(O)cc2)cc1 (stereo not given)", "IC50", "> 50 µM"),
    ("O=C(COc1cccc2c1C(=O)N(C1CCC(=O)NC1=O)C2=O)NCCCCOc1ccc(N(CC(F)(F)F)S(=O)(=O)C2CC3OC2C(c2ccc(O)cc2)=C3c2ccc(O)cc2)cc1 (stereo not given)", "IC50", "> 50 µM"),
    ("CCN(c1ccc(OCCCCCC(=O)N[C@H](C(=O)N2C[C@@H](O)C[C@H]2C(=O)N[C@@H](C)c2ccc(-c3scnc3C)cc2)C(C)(C)C)cc1)S(=O)(=O)C1CC2OC1C(c1ccc(O)cc1)=C2c1ccc(O)cc1 (stereo not given in full)", "IC50", "> 50 µM"),
    ("CCN(c1ccc(OCCCCCCC(=O)N[C@H](C(=O)N2C[C@H](O)C[C@H]2C(=O)N[C@@H](C)c2ccc(-c3scnc3C)cc2)C(C)(C)C)cc1)S(=O)(=O)C1CC2OC1C(c1ccc(O)cc1)=C2c1ccc(O)cc1 (stereo not given in full)", "IC50", "> 30 µM"),
]
